assay.method.text: physchem
condition.details: pH 7.4, aqueous buffer, Solubility Dulbecco's PBS pH 7.4
metric: log10(solubility) (log10 of the value in µM)
Parameter value (number): base-10 log of solubility in µM.

Some solved cases for reference:
[
  {
    "compound": "COc1c(C)cc2c(c1OC(=O)OC(C)(C)C)[C@@H]1C3[C@@H]4SC[C@]5(NCCc6c5[nH]c5ccccc65)C(=O)COC[C@@H](c5c6c(c(C)c(OC(C)=O)c54)OCO6)N3[C@@H](O)[C@H](C2)N1C (stereo partly drawn)",
    "log10(solubility)": 0.14
  },
  {
    "compound": "COc1c(C)cc2c(c1O)[C@@H]1C3[C@@H]4SC[C@]5(NCCc6c5[nH]c5ccc(O)cc65)C(=O)COC[C@@H](c5c6c(c(C)c(OC(C)=O)c54)OCO6)N3[C@@H](O)[C@H](C2)N1C (stereo partly drawn)",
    "log10(solubility)": 1.26
  },
  {
    "compound": "COc1c(C)cc2c(c1O)[C@@H]1C3[C@@H]4SC[C@]5(NCCc6c5[nH]c5cc(F)ccc65)C(=O)COC[C@@H](c5c6c(c(C)c(OC(C)=O)c54)OCO6)N3[C@@H](O)[C@H](C2)N1C (stereo partly drawn)",
    "log10(solubility)": 1.16
  }
]

Suppose we examine the compound COc1c(C)cc2c(c1O)[C@@H]1C3[C@@H]4SC[C@]5(C(=O)COC[C@@H](c6c7c(c(C)c(OC(C)=O)c64)OCO7)N3[C@@H](O)[C@H](C2)N1C)c1[nH]c2ccc(O)cc2c1CCN5C (stereo partly drawn) ; what log10(solubility) value has been reported?
1.84

// repeat for COc1c(C)cc2c(c1O)[C@@H]1C3[C@@H]4SC[C@]5(NCCc6c5[nH]c5c(C)cccc65)C(=O)COC[C@@H](c5c6c(c(C)c(OC(C)=O)c54)OCO6)N3[C@@H](O)[C@H](C2)N1C (stereo partly drawn) and report
1.41

// repeat for COc1c(C)cc2c(c1O)[C@@H]1C3[C@@H]4SC[C@]5(NCCc6c5[nH]c5ccc(C)cc65)C(=O)COC[C@@H](c5c6c(c(C)c(OC(C)=O)c54)OCO6)N3[C@@H](O)[C@H](C2)N1C (stereo partly drawn) and report
0.35

// repeat for COc1c(C)cc2c(c1O)[C@@H]1C3[C@@H]4SC[C@]5(NCCc6c5[nH]c5ccc(OCc7ccccc7)cc65)C(=O)COC[C@@H](c5c6c(c(C)c(OC(C)=O)c54)OCO6)N3[C@@H](O)[C@H](C2)N1C (stereo partly drawn) and report
0.20

###

Test system: MCF
Just a reminder that ties go to condition not met: only GI50 strictly below 3 nM counts as condition met.

Check out these entries, answers already filled in.
[
  {
    "compound": "COc1c(C)cc2c(c1O)[C@@H]1C3[C@@H]4SC[C@]5(NCCc6c5[nH]c5ccc(OCc7ccccc7)cc65)C(=O)COC[C@@H](c5c6c(c(C)c(OC(C)=O)c54)OCO6)N3[C@@H](O)[C@H](C2)N1C (some centres unmarked)",
    "label.class": "condition not met"
  },
  {
    "compound": "COc1c(C)cc2c(c1O)[C@@H]1C3[C@@H]4SC[C@]5(NCCc6c5[nH]c5ccc(C)cc65)C(=O)COC[C@@H](c5c6c(c(C)c(OC(C)=O)c54)OCO6)N3[C@@H](O)[C@H](C2)N1C (some centres unmarked)",
    "label.class": "condition met"
  },
  {
    "compound": "COc1c(C)cc2c(c1O)[C@@H]1C3[C@@H]4SC[C@]5(NCCc6c5[nH]c5ccccc65)C(=O)COC[C@@H](c5c6c(c(C)c(OC(C)=O)c54)OCO6)N3[C@@H](O)[C@H](C2)N1C (some centres unmarked)",
    "label.class": "condition met"
  },
  {
    "compound": "COc1ccc2c3c([nH]c2c1)[C@@]1(CS[C@@H]2c4c(OC(C)=O)c(C)c5c(c4[C@H](COCC1=O)N1C2[C@H]2c4c(cc(C)c(OC)c4O)C[C@@H]([C@@H]1O)N2C)OCO5)NCC3 (some centres unmarked)",
    "label.class": "condition not met"
  }
]

Does COc1c(C)cc2c(c1O)[C@@H]1C3[C@@H]4SC[C@]5(C(=O)COC[C@@H](c6c7c(c(C)c(OC(C)=O)c64)OCO7)N3[C@@H](O)[C@H](C2)N1C)c1[nH]c2ccc(O)cc2c1CCN5C (some centres unmarked) have GI50 strictly under 3 nM?
condition met
